# Assay comment: Protein binding in human plasma at 1 ug/ml after 4 hrs by rapid equilibrium dialysis and LC-MS/MS analysis
# Type: ADME, cell-free
# Condition label: at 1 µg/mL, read-out: PPB (converted)
Quantity: fraction unbound at 4 h, 1 ug/ml

Task item: Dear colleague, please send me the reported fraction unbound at 4 h, 1 ug/ml for Cc1cc(C)n(-c2cccc([C@H](CC(=O)O)CN3CC[C@@H](CCc4ccc5c(n4)NCCC5)C3)c2)n1 [GSK-3008348 FREE BASE] when you can.
Reply: 0.036

---

# Assay comment: Protein binding in rat kidneys at 1 ug/ml after 4 hrs by rapid equilibrium dialysis and LC-MS/MS analysis
# Format: ADME, tissue-based
# Condition label: rat kidney tissue, at 1 µg/mL, read-out: PB (converted)
Quantity: fraction unbound at 4 h, 1 ug/ml
Output spec: single numeric token, no unit.

Task item: Give the value of fraction unbound at 4 h, 1 ug/ml reported for the following: Cc1cc(C)n(-c2cccc([C@H](CC(=O)O)CN3CC[C@@H](CCc4ccc5c(n4)NCCC5)C3)c2)n1 [GSK-3008348 FREE BASE]
Reply: 0.027

---

# Assay comment: in vivo
# Condition label: Wistar Han, rat, po, 3 mg/kg
Quantity: Tmax

Task item: State, in one line, measured Tmax of Cc1cc(C)n(-c2cccc([C@H](CC(=O)O)CN3CC[C@@H](CCc4ccc5c(n4)NCCC5)C3)c2)n1 [GSK-3008348 FREE BASE]
Reply: 0.5 to 2 h

---

# Assay comment: Terminal half life in Beagle dog blood at 1 mg/kg, iv dosed via 60 mins infusion followed by 6 days washout and re-dosed via oral gavage at 1 mg/kg
# Type: ADME, organism-based, Canis lupus familiaris
# Condition label: whole blood, read-out: beta t1/2
Quantity: half-life

Task item: Give a short answer stating reported half-life for Cc1cc(C)n(-c2cccc([C@H](CC(=O)O)CN3CC[C@@H](CCc4ccc5c(n4)NCCC5)C3)c2)n1 [GSK-3008348 FREE BASE] .
Reply: 1.2 to 5.4 h

---

# Measured target: Voltage-gated inwardly rectifying potassium channel KCNH2 (Homo sapiens)
# Sequence (Q12809 whole entry): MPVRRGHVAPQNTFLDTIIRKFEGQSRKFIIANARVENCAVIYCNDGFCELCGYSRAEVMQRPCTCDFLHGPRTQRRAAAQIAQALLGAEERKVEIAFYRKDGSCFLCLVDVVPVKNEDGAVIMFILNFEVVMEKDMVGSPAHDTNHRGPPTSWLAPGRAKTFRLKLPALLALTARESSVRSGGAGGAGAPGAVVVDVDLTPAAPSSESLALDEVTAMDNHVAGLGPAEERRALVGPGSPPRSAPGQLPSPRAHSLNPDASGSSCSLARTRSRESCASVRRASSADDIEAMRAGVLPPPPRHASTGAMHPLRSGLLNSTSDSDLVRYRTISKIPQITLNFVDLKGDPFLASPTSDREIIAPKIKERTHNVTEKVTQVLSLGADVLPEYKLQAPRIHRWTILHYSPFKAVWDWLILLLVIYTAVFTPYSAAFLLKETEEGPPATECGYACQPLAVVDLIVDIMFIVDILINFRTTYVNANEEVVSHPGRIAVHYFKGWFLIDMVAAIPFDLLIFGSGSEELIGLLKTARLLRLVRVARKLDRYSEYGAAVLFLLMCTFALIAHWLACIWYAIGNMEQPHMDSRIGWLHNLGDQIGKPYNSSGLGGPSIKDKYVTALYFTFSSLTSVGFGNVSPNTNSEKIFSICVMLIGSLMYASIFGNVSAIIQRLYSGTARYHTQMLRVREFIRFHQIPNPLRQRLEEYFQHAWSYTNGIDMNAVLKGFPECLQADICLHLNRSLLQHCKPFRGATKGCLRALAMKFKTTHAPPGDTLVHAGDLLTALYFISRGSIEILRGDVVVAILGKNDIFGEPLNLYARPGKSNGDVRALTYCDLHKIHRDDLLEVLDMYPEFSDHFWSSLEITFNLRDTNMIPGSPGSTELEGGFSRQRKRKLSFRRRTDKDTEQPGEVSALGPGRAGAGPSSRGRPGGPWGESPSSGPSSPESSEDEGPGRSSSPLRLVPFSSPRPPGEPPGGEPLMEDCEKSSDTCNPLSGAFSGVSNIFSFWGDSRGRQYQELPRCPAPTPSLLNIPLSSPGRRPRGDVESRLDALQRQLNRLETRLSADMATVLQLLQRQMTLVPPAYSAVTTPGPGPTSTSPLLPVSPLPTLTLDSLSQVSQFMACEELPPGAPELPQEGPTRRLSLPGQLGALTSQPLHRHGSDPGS
pIC50: −log10 of the molar value.
Quantity: pIC50

[
  {
    "Compound": "Cc1cn(C)c(-c2cccc([C@H](CC(=O)O)CN3CC[C@@H](CCc4ccc5c(n4)NCCC5)C3)c2)n1",
    "Measured target": "Voltage-gated inwardly rectifying potassium channel KCNH2 (Homo sapiens)",
    "Assay value": "< 4.30"
  },
  {
    "Compound": "O=C(O)C[C@H](CN1CC[C@@H](CCc2ccc3c(n2)NCCC3)C1)c1cccc(-n2cncn2)c1",
    "Measured target": "Voltage-gated inwardly rectifying potassium channel KCNH2 (Homo sapiens)",
    "Assay value": "< 4.30"
  },
  {
    "Compound": "O=C(O)C[C@H](CN1CC[C@@H](CCc2ccc3c(n2)NCCC3)C1)c1cccc(OC2COC2)c1",
    "Measured target": "Voltage-gated inwardly rectifying potassium channel KCNH2 (Homo sapiens)",
    "Assay value": "< 4.30"
  },
  {
    "Compound": "O=C(O)C[C@H](CN1CC[C@@H](CCc2ccc3c(n2)NCCC3)C1)c1cccc(Br)c1",
    "Measured target": "Voltage-gated inwardly rectifying potassium channel KCNH2 (Homo sapiens)",
    "Assay value": 5.90
  },
  {
    "Compound": "O=C(O)CC(CN1CC[C@@H](CCc2ccc3c(n2)NCCC3)C1)c1cccc(-n2ccnc2)c1 (mixture of isomers)",
    "Measured target": "Voltage-gated inwardly rectifying potassium channel KCNH2 (Homo sapiens)",
    "Assay value": "< 4.30"
  }
]

Task item: Identify measured pIC50 associated with O=C(O)C[C@H](CN1CC[C@@H](CCc2ccc3c(n2)NCCC3)C1)c1cccc(-n2ccnn2)c1
Reply: < 4.30
